Where do the numbers come from? From patent US20210155689A1.

Target: T1, human LAG-3 on cells (HEK293-hLAG-3 stable cell line) (human, UniProt P18627 23-525)
T1 sequence: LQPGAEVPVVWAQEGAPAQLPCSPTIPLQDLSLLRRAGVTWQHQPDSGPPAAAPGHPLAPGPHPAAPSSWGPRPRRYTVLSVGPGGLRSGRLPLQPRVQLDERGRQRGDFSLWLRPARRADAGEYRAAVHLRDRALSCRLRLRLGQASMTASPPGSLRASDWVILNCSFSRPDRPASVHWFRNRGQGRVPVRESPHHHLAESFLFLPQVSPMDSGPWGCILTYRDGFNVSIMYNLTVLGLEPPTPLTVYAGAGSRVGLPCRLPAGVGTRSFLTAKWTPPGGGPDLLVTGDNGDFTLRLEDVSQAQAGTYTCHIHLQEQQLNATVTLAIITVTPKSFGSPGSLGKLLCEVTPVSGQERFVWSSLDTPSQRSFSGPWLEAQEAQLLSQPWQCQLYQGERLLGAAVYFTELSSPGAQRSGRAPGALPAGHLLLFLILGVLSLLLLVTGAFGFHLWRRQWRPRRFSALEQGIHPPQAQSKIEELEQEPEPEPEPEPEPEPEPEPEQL
Test: cell-based or functional assay
READOUT_KIND: IL-2 production, SEB-dependent PBMC stimulation test, 2 ug/ml, N = 2
// return the numeric value with its unit appended

Query string: Could you tell me which IL-2 production, SEB-dependent PBMC stimulation test, 2 ug/ml, N = 2 is on file for 105F1E10 mouse-human chimeric antibody (antibody, V domains shown, also called mAb009-105F1E10) VH: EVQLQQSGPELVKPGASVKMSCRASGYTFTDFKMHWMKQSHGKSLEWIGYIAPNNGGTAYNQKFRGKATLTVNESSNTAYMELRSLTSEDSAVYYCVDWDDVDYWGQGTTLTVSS VL: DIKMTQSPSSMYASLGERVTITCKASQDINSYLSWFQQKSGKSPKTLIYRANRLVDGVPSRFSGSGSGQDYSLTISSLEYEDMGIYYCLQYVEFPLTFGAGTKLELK ?
Result string: 3660 pg/mL
